Cited source: patent US20240116985A1

# Target system: full-length beta-Catenin (Uniprot ID P35222) (Homo sapiens (Human)) (UniProt P35222)
# Assay explanation: fluorescence polarization competition; full-length beta-catenin, competitor 5FAM-TCF4(10-53) probe
pIC50: −log10 of the molar value. Starred links: 1 amine or outer side, 2 acyl side, 3 side chain; linkers in the order of their positions; H or OH if unused. Positions of bridges follow the written chain, without caps; N, C: chain ends. Non-standard residues stand in square brackets, D forms with d. Primed or numbered codes have the meaning given here. PyrS2″ = (S)-3-amino-1-((pent-4-en-1-yloxy)carbonyl)pyrrolidine-3-carboxylic acid (stapling residue), C=CCCCOC(=O)N1CC[C@@](N[*:1])(C(=O)[*:2])C1; B5(4) = 2,2-bis(4-pentenyl)glycine = 2-amino-2-(pent-4-en-1-yl)hept-6-enoic acid (stitching residue), C=CCCCC(CCCC=C)(N[*:1])C(=O)[*:2]; B5(5) = 2,2-bis(4-pentenyl)glycine, 2-amino-2-(pent-4-en-1-yl)hept-6-enoic acid (stitching residue), C=CCCCC(CCCC=C)(N[*:1])C(=O)[*:2]; B5(31) = 2-amino-2-(pent-4-en-1-yl)hept-6-enoic acid (bis-pentenylglycine, stitching residue), C=CCCCC(CCCC=C)(N[*:1])C(=O)[*:2]; Phe(2-Me) = Cc1ccccc1C[C@H](N)C(=O)O; Bta = N[C@@H](Cc1csc2ccccc12)C(=O)O; αAllylPro = C=CC[C@@]1(C(=O)O)CCCN1; tBuAla = CC(C)(C)C[C@H](N)C(=O)O; 2Thi = N[C@@H](Cc1cccs1)C(=O)O; 3Thi = N[C@@H](Cc1ccsc1)C(=O)O; Cha = N[C@@H](CC1CCCCC1)C(=O)O; S8 = C=CCCCCCC[C@](C)(N)C(=O)O; Aib = CC(C)(N)C(=O)O
Measured pIC50 of individual entries
Experimental endpoint: pIC50

Binder: Ac-[αAllylPro]N[tBuAla][B5(31)]NTAAFN[PyrS2″][3Thi][Bta]Q-NH2 (staple 1-4, 4-11) [I-2333]
Reported measurement: 5.00
//
Binder: Ac-[αAllylPro]DA[B5(4)]DEAA[2Thi]N[S8]F[Bta]Q-NH2 (staple 1-4, 4-11; also: staple isomer composition, earlier-eluting HPLC peak) [I-446]
Reported measurement: 6.89
//
Binder: Ac-[αAllylPro]D[tBuAla][B5(5)]NT[Aib]AFN[PyrS2″][3Thi][Bta]R-NH2 (staple 1-4, 4-11) [I-2413]
Reported measurement: 6.88
//
Binder: Ac-[αAllylPro]DA[B5(4)]DEAA[Phe(2-Me)]N[S8]F[Bta]Q-NH2 (staple 1-4, 4-11) [I-456]
Reported measurement: 5.66
//
Binder: Ac-[αAllylPro]N[Cha][B5(5)]DQQAFL[PyrS2″]F[Bta]K-NH2 (staple 1-4, 4-11) [I-2421]
Reported measurement: 6.84
